System: pERK in MKN1 cells
Test: Inhibition of KRas phosphorylation of ERK (Cisbio HTRF pERK assay)
Details: Homo sapiens, MKN-1, 3 h, read-out: Inhibition (HTRF IC50) of KRas-mediated Phosphorylation of ERK, MKN1
pIC50: −log10 of the molar value.
Output 1 for pIC50 not less than 8; output 0 otherwise.

Ask | Is reported pIC50 greater than or equal to 8 here: C#Cc1c(F)ccc2cc(O)cc(-c3ncc4c(N5CCOC[C@](C)(O)C5)nc(OC[C@@]56CCCN5C[C@H](F)C6)nc4c3F)c12 (single isomer, unassigned)
Reply | 0

Ask | Is reported pIC50 greater than or equal to 8 here: O=C1C[C@]2(CCCN(c3nc(OC[C@@]45CCCN4C[C@H](F)C5)nc4c(F)c(-c5cc(O)cc6ccc(F)c(Cl)c56)ncc34)C2)N1
Reply | 1

Ask | Is reported pIC50 greater than or equal to 8 here: CCc1c(F)ccc2cc(O)cc(-c3ncc4c(N5CCN6C(=O)NC(=O)C6C5)nc(OC[C@@]56CCCN5C[C@H](F)C6)nc4c3F)c12 (stereo partly drawn)
Reply | 0

Ask | Is reported pIC50 greater than or equal to 8 here: CCc1c(F)ccc2cc(O)cc(-c3ncc4c(N5CCC[C@@](C)(O)C5)nc(OCC5(CN6CCOCC6)CC5)nc4c3F)c12
Reply | 1

Ask | Is reported pIC50 greater than or equal to 8 here: CCNC(=O)c1cc2n(n1)CCCN(c1nc(OC[C@@]34CCCN3C[C@H](F)C4)nc3c(F)c(-c4cc(O)cc5ccc(F)c(CC)c45)ncc13)C2
Reply | 0

###

Biological target: KRas G12V (Homo sapiens, UniProt P01116, G12V);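 note: KRas binding measured by TR-FRET displacement at room temperature, IC50 fitted from percent of control values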
Sequence (P01116 1-169 isoform P01116-2 G12V): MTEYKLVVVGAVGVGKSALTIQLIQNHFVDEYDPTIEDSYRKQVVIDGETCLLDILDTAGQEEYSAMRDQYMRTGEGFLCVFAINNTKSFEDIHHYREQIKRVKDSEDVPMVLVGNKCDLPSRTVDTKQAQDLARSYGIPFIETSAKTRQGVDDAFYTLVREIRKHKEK
Assay: biochemical
List of IC50 values.
Please give a number only; it is taken to be in nM.

COMPOUND	IC50 (nM)
N#CCc1cccc2cccc(-c3ncc4c(N5CCCC6(CC(=O)N6)C5)nc(OCC56CCCN5CCC6)nc4c3F)c12 (stereo not shown)	3210

Ask | Any idea what IC50 was measured for CCc1c(F)ccc2cc(O)cc(-c3ncc4c(N5CCOCC6(C5)NC(=O)NC6=O)nc(OC[C@@]56CCCN5C[C@H](F)C6)nc4c3F)c12 (stereo partly shown) ?
Reply | 3

Ask | Any idea what IC50 was measured for O=S1(=O)CCC(Nc2nc(OCC34CCCN3CCC4)nc3c(F)c(-c4cccc5cccc(F)c45)ncc23)C1 (stereo not shown) ?
Reply | 3390

Ask | Any idea what IC50 was measured for CC1(O)CCCN(c2nc(OCC34CCCN3CCC4)nc3c(F)c(-c4cccc5ccccc45)ncc23)C1 (stereo not shown) ?
Reply | 2730

###

System: pERK in HCT116 cells
Experiment: Inhibition of KRas phosphorylation of ERK (Cisbio HTRF pERK assay)
Details: Homo sapiens, HCT-116, read-out: Inhibition (HTRF IC50) of KRas-mediated Phosphorylation of ERK, HCT116
List of pIC50 values.
The value called pIC50 is obtained by taking minus log10 of the concentration in mol/L.

# count of solved cases: 4
MOLECULE	pIC50
CCc1c(F)ccc2cc(O)cc(-c3ncc4c(N5CCCOCC5)nc(OC[C@@]56CCCN5C[C@H](F)C6)nc4c3F)c12	7.62
C#Cc1c(F)ccc2cc(O)cc(-c3ncc4c(N5CCCn6nc(C(=O)N(C)C)cc6C5)nc(OC[C@@]56CCCN5C[C@H](F)C6)nc4c3F)c12	6.46
CCc1c(F)ccc2cc(O)cc(-c3ncc4c(N5CCCn6nc(C(=O)N(C)C)c(Cl)c6C5)nc(OC[C@@]56CCCN5C[C@H](F)C6)nc4c3F)c12	7.09
C#Cc1c(F)ccc2cc(O)cc(-c3ncc4c(N5C[C@@H]6C[C@H](C5)[C@H](O)C6)nc(OC[C@@]56CCCN5C[C@H](F)C6)nc4c3F)c12	8.05

Ask | Any idea what pIC50 was measured for C[C@@]1(O)CCCN(c2nc(OC[C@@]34CCCN3C[C@H](F)C4)nc3c(F)c(-c4cc(O)cc5ccc(F)c(Br)c45)ncc23)C1 ?
Reply | 7.64

Ask | Any idea what pIC50 was measured for CCc1c(F)ccc2cc(O)cc(-c3ncc4c(N5CCC[C@]6(C5)NC(=O)NC6=O)nc(OCC5(CN6CCCC6)CC5)nc4c3F)c12 ?
Reply | 6.52

Ask | Any idea what pIC50 was measured for Oc1cc(-c2ncc3c(N4CCCC5(CC(O)C5)C4)nc(OC[C@@]45CCCN4C[C@H](F)C5)nc3c2F)c2c(Cl)c(F)ccc2c1 (stereo partly drawn) ?
Reply | 7.14

Ask | Any idea what pIC50 was measured for C[C@@]1(O)CCCN(c2nc(OC[C@@]34CCCN3C[C@H](F)C4)nc3c(F)c(-c4cc(O)cc5ccc(F)c(F)c45)ncc23)C1 ?
Reply | 7.52

Ask | Any idea what pIC50 was measured for CCc1c(F)ccc2cc(O)cc(-c3ncc4c(N5C[C@@H]6C[C@H](C5)[C@H](O)C6)nc(OCC5(CN(C)C)CC5)nc4c3F)c12 ?
Reply | 6.85

Ask | Any idea what pIC50 was measured for CCc1cccc2cc(O)c(F)c(-c3ncc4c(N5CCC[C@@](C)(O)C5)nc(OC[C@@]56CCCN5C[C@H](F)C6)nc4c3F)c12 ?
Reply | 5.97

Ask | Any idea what pIC50 was measured for O=C1NCC2(CCCN(c3nc(OC[C@@]45CCCN4C[C@H](F)C5)nc4c(F)c(-c5cc(O)cc6ccc(F)c(Br)c56)ncc34)C2)N1 (stereo partly drawn) ?
Reply | 5.93

Ask | Any idea what pIC50 was measured for CCc1c(F)ccc2cc(O)cc(-c3ncc4c(N5CCCSCC5)nc(OC[C@@]56CCCN5C[C@H](F)C6)nc4c3F)c12 ?
Reply | 6.33
